# PROTOCOL_NOTES: Toxicokinetics in the 28-day study
# Type: in vivo, mice
# SETUP_CONDITIONS: female, CD1, mouse, in vivo, po, 80 mg/kg, female mice; 80 mg/kg; Day 0
READOUT_KIND: half-life (h)
Answers are plain numbers, in h.

Give half-life for `c1coc(CNc2ncnc3[nH]cnc23)c1` 25.9

* * *

# PROTOCOL_NOTES: Toxicokinetics in the 28-day study
# Assay type: in vivo, mice
# SETUP_CONDITIONS: male, CD1, mouse, in vivo, po, 250 mg/kg, male mice; 250 mg/kg; Day 28
READOUT_KIND: Cmax (ng/mL)
Give bare numbers, in ng/mL.

Supply reported Cmax belonging to this molecule: c1coc(CNc2ncnc3[nH]cnc23)c1 [MB-905, kinetin] 588
